# ASSAY PROCEDURE: Rat liver microsomal stability
# Assay type: in vitro ADME
# REPORTED CONDITIONS: rat liver microsomes
MEASUREMENT NAME: Comments: production of GNX (ganaxolone) in rat liver microsomes

[
  {
    "SMILES TEXT": "CC(=O)[C@H]1CC[C@H]2[C@@H]3CC[C@H]4C[C@](C)(OC(=O)COC(=O)C(C)(C)O)CC[C@]4(C)[C@H]3CC[C@]12C",
    "REPORTED": "In rat no GNX produced;"
  },
  {
    "SMILES TEXT": "CC(=O)[C@H]1CC[C@H]2[C@@H]3CC[C@H]4C[C@](C)(OC(=O)CNC(C)(C)C(=O)O)CC[C@]4(C)[C@H]3CC[C@]12C",
    "REPORTED": "In rat no GNX produced;"
  },
  {
    "SMILES TEXT": "CC(=O)[C@H]1CC[C@H]2[C@@H]3CC[C@H]4C[C@](C)(OC(=O)CN)CC[C@]4(C)[C@H]3CC[C@]12C",
    "REPORTED": "In rat no GNX produced;"
  }
]

* * *

# ASSAY PROCEDURE: in vitro
# Type: in vitro ADME, human
# REPORTED CONDITIONS: human liver microsomes, no NADPH, 1 h, compound 0.5 μM
# Protocol: For several compounds only human liver microsomal stability was tested. […] The microsomal assays were carried out with and without the addition of NADPH at a final concentration of 1 mM. For negative control samples, NADPH reagent was not added. […] Note that compounds undergo only Phase I metabolism in liver microsomes.
MEASUREMENT NAME: Human Liver Microsomal Stability no NADPH, % remain 1 h (%)
Provide the reading as a plain figure in %.

[
  {
    "SMILES TEXT": "CC(=O)[C@H]1CC[C@H]2[C@@H]3CC[C@H]4C[C@](C)(OC(=O)OCCN(C)C)CC[C@]4(C)[C@H]3CC[C@]12C",
    "REPORTED": 88
  }
]

// next item, Human Liver Microsomal Stability no NADPH, % remain 1 h requested
Could you tell me which Human Liver Microsomal Stability no NADPH, % remain 1 h is on file for CC(=O)[C@H]1CC[C@H]2[C@@H]3CC[C@H]4C[C@](C)(OC(=O)COC(=O)OC5CNC5)CC[C@]4(C)[C@H]3CC[C@]12C ?
61

* * *

# ASSAY PROCEDURE: in vitro
# REPORTED CONDITIONS: rat, plasma
MEASUREMENT NAME: Observations: stability / GNX production in rat plasma

[
  {
    "COMPOUND": "CC(=O)[C@H]1CC[C@H]2[C@@H]3CC[C@H]4C[C@](C)(OC(=O)COC(=O)C(C)(C)OC(=O)CN(CCO)CCO)CC[C@]4(C)[C@H]3CC[C@]12C [Compound 228]",
    "REPORTED": "GNX produced in rat"
  },
  {
    "COMPOUND": "CC(=O)[C@H]1CC[C@H]2[C@@H]3CC[C@H]4C[C@](C)(OC(=O)COC(=O)C(C)(C)N)CC[C@]4(C)[C@H]3CC[C@]12C [Compound 218]",
    "REPORTED": "GNX produced in rat"
  },
  {
    "COMPOUND": "CC(=O)[C@H]1CC[C@H]2[C@@H]3CC[C@H]4C[C@](C)(OC(=O)COC(=O)C(C)(C)O)CC[C@]4(C)[C@H]3CC[C@]12C [Compound 224]",
    "REPORTED": "GNX produced in rat"
  }
]

* * *

# ASSAY PROCEDURE: Pharmacokinetic study with Compound 111 (IV 5 mg/kg, PO 25 mg/kg)
# Assay type: in vivo
# REPORTED CONDITIONS: male, beagle, dog, plasma, iv, 5 mg/kg, analyte Compound 111; IV 5 mg/kg Compound 111; fasted male beagle dogs; mean; read-out: Compound 111 PK Vss
MEASUREMENT NAME: Vd (L/kg)
Write it as a number; the unit L/kg goes unstated.

What does the data say about its Vd? Entry: CC(=O)[C@H]1CC[C@H]2[C@@H]3CC[C@H]4C[C@](C)(OC(=O)CN)CC[C@]4(C)[C@H]3CC[C@]12C
6.71

* * *

Reported half-life values follow for various molecules
# ASSAY PROCEDURE: Dog liver microsomal stability
# Type: in vitro ADME
# REPORTED CONDITIONS: dog liver microsomes 0.5 mg/mL, compound 0.5 μM; read-out: Dog Liver Microsomal Stability t1/2
Your answer should be a number followed by the unit of measure.

[
  {
    "MOLECULE": "CC(=O)[C@H]1CC[C@H]2[C@@H]3CC[C@H]4C[C@](C)(OC(=O)CN)CC[C@]4(C)[C@H]3CC[C@]12C [Compound 111]",
    "MEASUREMENT NAME": "half-life",
    "REPORTED": "280 min"
  }
]

Using the record for CC(=O)OCCN(CCOC(C)=O)CC(=O)OC(C)(C)C(=O)OCC(=O)O[C@]1(C)CC[C@@]2(C)[C@@H](CC[C@@H]3[C@@H]2CC[C@]2(C)[C@@H](C(C)=O)CC[C@@H]32)C1 [Compound 229] , report its half-life.
6.2 min

State the recorded half-life for this entry: CC(=O)[C@H]1CC[C@H]2[C@@H]3CC[C@H]4C[C@](C)(OC(=O)COC(=O)C(C)(C)OC(=O)CN(CCO)CCO)CC[C@]4(C)[C@H]3CC[C@]12C [Compound 228]
10.7 min

Record request: half-life value, item CC(=O)[C@H]1CC[C@H]2[C@@H]3CC[C@H]4C[C@](C)(O)CC[C@]4(C)[C@H]3CC[C@]12C [ganaxolone, Ganaxolone]
49.8 min

Which half-life is reported for this molecule? CC(=O)[C@H]1CC[C@H]2[C@@H]3CC[C@H]4C[C@](C)(OC(=O)CNC(C)(C)C(=O)O)CC[C@]4(C)[C@H]3CC[C@]12C [Compound 120]
81 min

Please look up its half-life: CC(=O)[C@H]1CC[C@H]2[C@@H]3CC[C@H]4C[C@](C)(OC(=O)COC(=O)C(C)(C)N)CC[C@]4(C)[C@H]3CC[C@]12C [Compound 218]
20.1 min

* * *

# ASSAY PROCEDURE: in vitro
# Type: in vitro ADME, human
# REPORTED CONDITIONS: human liver microsomes 0.5 mg/mL, with NADPH, compound 0.5 μM; read-out: Human Liver Microsomal Stability CLint (uL/min/mg liver) (converted)
Catalogue of microsomal CLint values
Give just the number in µL/min/mg; leave the unit off.

[
  {
    "SMILES TEXT": "CC(=O)[C@H]1CC[C@H]2[C@@H]3CC[C@H]4C[C@](C)(OC(=O)COC(=O)[C@H](CC(C)C)NC(=O)[C@@H](N)CC(C)C)CC[C@]4(C)[C@H]3CC[C@]12C",
    "microsomal CLint, µL/min/mg": 5.39
  }
]

Return reported microsomal CLint; argument: CC(=O)[C@H]1CC[C@H]2[C@@H]3CC[C@H]4C[C@](C)(OC(=O)CNCCO)CC[C@]4(C)[C@H]3CC[C@]12C
21.4

State the recorded microsomal CLint for this entry: CC(=O)[C@H]1CC[C@H]2[C@@H]3CC[C@H]4C[C@](C)(OC(=O)CNC(C)(C)C(=O)O)CC[C@]4(C)[C@H]3CC[C@]12C
86

May I ask what microsomal CLint has been recorded for CC(=O)[C@H]1CC[C@H]2[C@@H]3CC[C@H]4C[C@](C)(OC(=O)CN)CC[C@]4(C)[C@H]3CC[C@]12C ?
7.28

* * *

# ASSAY PROCEDURE: in vitro
# Format: in vitro ADME, human
# REPORTED CONDITIONS: human liver microsomes 0.5 mg/mL, with NADPH, compound 0.5 μM, 37° C.; read-out: Human Liver Microsomal Stability t1/2
# Procedure: For several compounds only human liver microsomal stability was tested. […] The microsomal assays were carried out with and without the addition of NADPH at a final concentration of 1 mM. For negative control samples, NADPH reagent was not added. […] Note that compounds undergo only Phase I metabolism in liver microsomes.
# half-life listing for each entry below
Reply with just the number (in min).

Take a look at these entries with their results.
[
  {
    "COMPOUND": "CC(=O)[C@H]1CC[C@H]2[C@@H]3CC[C@H]4C[C@](C)(OC(=O)OCCN(C)C)CC[C@]4(C)[C@H]3CC[C@]12C [Compound 419]",
    "REPORTED": 39.5
  },
  {
    "COMPOUND": "CC(=O)[C@H]1CC[C@H]2[C@@H]3CC[C@H]4C[C@](C)(OC(=O)COC(=O)C(C)(C)OC(=O)CN(CCCO)CCCO)CC[C@]4(C)[C@H]3CC[C@]12C [Compound 231]",
    "REPORTED": 5.3
  }
]

Kindly review the next compound as well.
If you can, please state the reported half-life value of COC(=O)C(C)(C)NCC(=O)O[C@]1(C)CC[C@@]2(C)[C@@H](CC[C@@H]3[C@@H]2CC[C@]2(C)[C@@H](C(C)=O)CC[C@@H]32)C1 [Compound 125] .
3.9

Origin of the recorded values: patent US20250034201A1
